Assay: self-splicing fitness, log relative to wild type (ln ratio); higher = more splicing; Tetrahymena group I intron in knt gene, E. coli kanamycin selection, DiMSum; sequences stand for … in CUCUCU…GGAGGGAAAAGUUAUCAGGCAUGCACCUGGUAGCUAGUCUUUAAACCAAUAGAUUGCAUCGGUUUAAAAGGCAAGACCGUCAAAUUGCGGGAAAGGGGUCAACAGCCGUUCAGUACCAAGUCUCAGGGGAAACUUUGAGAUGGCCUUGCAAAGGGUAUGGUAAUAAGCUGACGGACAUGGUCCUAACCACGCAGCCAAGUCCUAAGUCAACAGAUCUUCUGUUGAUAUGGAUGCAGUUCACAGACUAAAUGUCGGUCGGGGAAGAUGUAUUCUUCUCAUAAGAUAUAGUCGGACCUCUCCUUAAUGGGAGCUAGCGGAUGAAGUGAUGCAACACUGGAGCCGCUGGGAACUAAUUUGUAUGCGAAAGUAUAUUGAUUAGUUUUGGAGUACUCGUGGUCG;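 further: selection with 25 µg/mL kanamycin versus none on LB agar overnight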
Settings: 30 °C
Parameter class (string): assigned from measured self-splicing fitness (ln). Ranges: low = under -3, middle = from -3 up to -2, high = -2 and over

Observe how each entry below is paired with its result.
GGUAAGCAAUAUUACGGUUG = low
UGGUAGCAAUAUUACGCGUA = high
AUGUAGCAAUAUUACGCCGG = middle
GGUCAGCAAUAUUACGAGGU = high
CUGAAGCAAUAUUACGGCGG = high
AAAGAGCAAUAUUACGAAAC = low

Lookup: Which self-splicing fitness (ln) band matches `GCAAAGCAAUAUUACGUCUG` ?
Found: middle

Lookup: Which self-splicing fitness (ln) band matches `CCAGAGCAAUAUUACGCACG` ?
Found: middle

Lookup: Which self-splicing fitness (ln) band matches `AACGAGCAAUAUUACGAGUG` ?
Found: high

Lookup: Which self-splicing fitness (ln) band matches `UAGCAGCAAUAUUACGCCCC` ?
Found: high

Lookup: Which self-splicing fitness (ln) band matches `AGGUAGCAAUAUUACGGCCU` ?
Found: low

Lookup: Which self-splicing fitness (ln) band matches `UGGUAGCAAUAUUACGACUU` ?
Found: high

Lookup: Which self-splicing fitness (ln) band matches `AAAUAGCAAUAUUACGCUCA` ?
Found: high

Lookup: Which self-splicing fitness (ln) band matches `CGACAGCAAUAUUACGAACG` ?
Found: high

====

Assay: self-splicing fitness, log relative to wild type (ln ratio); higher = more splicing; Tetrahymena group I intron in knt gene, E. coli kanamycin selection, DiMSum; sequences stand for … in CUCUCU…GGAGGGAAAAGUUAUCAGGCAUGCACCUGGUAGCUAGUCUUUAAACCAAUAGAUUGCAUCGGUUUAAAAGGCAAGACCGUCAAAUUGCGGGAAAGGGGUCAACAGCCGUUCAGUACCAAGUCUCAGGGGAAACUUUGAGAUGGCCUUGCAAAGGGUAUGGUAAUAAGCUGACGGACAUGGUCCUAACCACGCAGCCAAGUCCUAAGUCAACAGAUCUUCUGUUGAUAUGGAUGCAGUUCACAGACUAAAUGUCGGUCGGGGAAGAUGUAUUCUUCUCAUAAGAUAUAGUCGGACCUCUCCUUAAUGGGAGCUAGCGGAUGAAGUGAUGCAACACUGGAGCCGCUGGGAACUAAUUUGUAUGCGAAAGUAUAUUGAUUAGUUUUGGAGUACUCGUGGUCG
Settings: 30 °C
Give 1 when the value for self-splicing fitness (ln) is at least -1. Give -1 when it is less.

Observe how each entry below is paired with its result.
UCUAAGCAAUAUUACGUAAA = -1
AACUAGCAAUAUUACGAUUC = -1

Lookup: Does `AAUCAGCAAUAUUACGCUGU` have a reported self-splicing fitness (ln) of at least -1?
Found: -1

Lookup: Does `GAAUAGCAAUAUUACGUAAC` have a reported self-splicing fitness (ln) of at least -1?
Found: 1

Lookup: Does `GAACAGCAAUAUUACGCUGU` have a reported self-splicing fitness (ln) of at least -1?
Found: -1

Lookup: Does `AGCUAGCAAUAUUACGUUCU` have a reported self-splicing fitness (ln) of at least -1?
Found: -1

Lookup: Does `AUACAGCAAUAUUACGGAAU` have a reported self-splicing fitness (ln) of at least -1?
Found: -1
